assay.target: Human recombinant PDE2A (hPDE2A) (Homo sapiens, UniProt O00408)
Construct: His tag (inferred from metal chelate purification); made in house; host or cells: Sf9 insect cells (baculovirus)
Sequence (O00408 whole entry): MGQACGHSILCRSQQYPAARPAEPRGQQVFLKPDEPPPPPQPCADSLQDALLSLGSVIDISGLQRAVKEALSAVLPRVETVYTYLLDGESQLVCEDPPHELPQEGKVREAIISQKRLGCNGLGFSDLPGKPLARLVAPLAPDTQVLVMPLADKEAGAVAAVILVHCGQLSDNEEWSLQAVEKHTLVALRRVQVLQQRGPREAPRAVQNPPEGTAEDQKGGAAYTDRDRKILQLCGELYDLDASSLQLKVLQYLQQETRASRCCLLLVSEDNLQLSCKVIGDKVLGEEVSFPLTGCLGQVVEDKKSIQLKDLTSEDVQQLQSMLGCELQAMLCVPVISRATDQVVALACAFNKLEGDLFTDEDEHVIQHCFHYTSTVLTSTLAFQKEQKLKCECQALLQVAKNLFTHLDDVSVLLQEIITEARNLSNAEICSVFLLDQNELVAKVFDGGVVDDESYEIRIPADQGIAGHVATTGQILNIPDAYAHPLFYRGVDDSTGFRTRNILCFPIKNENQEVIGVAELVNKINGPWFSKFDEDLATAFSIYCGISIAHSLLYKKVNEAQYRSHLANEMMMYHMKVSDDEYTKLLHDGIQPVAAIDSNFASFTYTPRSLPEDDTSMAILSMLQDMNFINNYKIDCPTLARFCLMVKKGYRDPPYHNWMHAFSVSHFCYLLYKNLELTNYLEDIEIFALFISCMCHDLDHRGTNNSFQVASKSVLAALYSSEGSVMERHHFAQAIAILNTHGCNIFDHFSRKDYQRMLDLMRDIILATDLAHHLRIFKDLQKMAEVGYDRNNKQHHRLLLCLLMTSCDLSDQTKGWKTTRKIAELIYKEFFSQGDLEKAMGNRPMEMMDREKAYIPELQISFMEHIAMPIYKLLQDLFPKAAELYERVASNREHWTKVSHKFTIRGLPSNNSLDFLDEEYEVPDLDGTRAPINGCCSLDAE
protocol.details: In vitro assay PDE2A (SPA, 3H-cGMP hydrolysis)
Type: biochemical
condition.info: read-out: hPDE2A pIC50 (converted)
Collected IC50 values appear next to each entry.

[
  {
    "compound": "C[C@@H]1CCN(C(=O)c2cc(-c3ccco3)nn2C)C[C@H]1c1cc(C(F)F)nc2ncnn12 [Compound 98]",
    "assay.target": "Human recombinant PDE2A (hPDE2A) (Homo sapiens, UniProt O00408)",
    "IC50 / nM": 0.603
  },
  {
    "compound": "Cc1ccc(C(=O)N2[C@H]3CC[C@H](c4cc(C(F)F)nc5ncnn45)[C@@H]2CC3)cc1Cl [Compound 369]",
    "assay.target": "Human recombinant PDE2A (hPDE2A) (Homo sapiens, UniProt O00408)",
    "IC50 / nM": 4.9
  },
  {
    "compound": "Cc1nc2cccc(C(=O)N3[C@H]4CC[C@H](c5cc(C(F)F)nc6ncnn56)[C@@H]3CC4)c2o1 [Compound 305]",
    "assay.target": "Human recombinant PDE2A (hPDE2A) (Homo sapiens, UniProt O00408)",
    "IC50 / nM": 87.1
  },
  {
    "compound": "O=C(c1ccc(F)c(OC(F)F)c1)N1[C@H]2CC[C@H](c3cc(C(F)F)nc4ncnn34)[C@@H]1CC2 [Compound 345]",
    "assay.target": "Human recombinant PDE2A (hPDE2A) (Homo sapiens, UniProt O00408)",
    "IC50 / nM": 75.9
  }
]

---

assay.target: Human recombinant PDE3A (hPDE3A) (Homo sapiens, UniProt Q14432)
Construct: purchased Scottish Biomedical; host or cells: Sf9 insect cells
Sequence (Q14432 whole entry): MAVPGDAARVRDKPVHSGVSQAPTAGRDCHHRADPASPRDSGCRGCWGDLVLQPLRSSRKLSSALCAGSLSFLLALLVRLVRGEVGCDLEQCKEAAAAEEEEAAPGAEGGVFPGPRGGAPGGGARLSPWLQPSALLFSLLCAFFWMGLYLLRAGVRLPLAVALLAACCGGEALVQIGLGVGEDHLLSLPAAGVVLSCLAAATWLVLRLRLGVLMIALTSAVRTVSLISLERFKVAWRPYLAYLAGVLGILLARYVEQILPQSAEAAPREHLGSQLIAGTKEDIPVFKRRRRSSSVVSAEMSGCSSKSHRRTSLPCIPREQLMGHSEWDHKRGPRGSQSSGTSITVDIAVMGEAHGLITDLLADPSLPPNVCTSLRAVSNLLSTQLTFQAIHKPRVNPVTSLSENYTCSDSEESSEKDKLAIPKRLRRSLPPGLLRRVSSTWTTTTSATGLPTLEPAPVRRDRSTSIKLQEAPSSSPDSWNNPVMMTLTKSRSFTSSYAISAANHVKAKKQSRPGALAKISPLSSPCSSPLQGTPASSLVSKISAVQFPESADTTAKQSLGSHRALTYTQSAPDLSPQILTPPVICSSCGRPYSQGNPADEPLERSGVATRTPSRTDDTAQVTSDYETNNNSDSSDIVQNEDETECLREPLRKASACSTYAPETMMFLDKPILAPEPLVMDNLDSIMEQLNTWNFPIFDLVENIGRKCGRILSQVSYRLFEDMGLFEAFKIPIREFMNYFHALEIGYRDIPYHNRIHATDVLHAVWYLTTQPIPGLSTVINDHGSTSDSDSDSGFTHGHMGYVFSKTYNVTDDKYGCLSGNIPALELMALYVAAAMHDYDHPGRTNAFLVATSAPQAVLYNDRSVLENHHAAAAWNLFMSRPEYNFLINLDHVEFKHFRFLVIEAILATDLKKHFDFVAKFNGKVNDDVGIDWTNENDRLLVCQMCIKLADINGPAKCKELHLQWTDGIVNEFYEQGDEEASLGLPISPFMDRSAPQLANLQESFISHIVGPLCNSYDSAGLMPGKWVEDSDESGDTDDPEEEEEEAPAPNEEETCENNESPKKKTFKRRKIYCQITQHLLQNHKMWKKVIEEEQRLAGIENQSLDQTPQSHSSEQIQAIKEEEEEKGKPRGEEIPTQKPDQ
protocol.details: In vitro assay PDE3A (SPA, 3H-cAMP hydrolysis);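 note: the method names PDE3A and the table heading PDE3B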
Format: biochemical
condition.info: read-out: hPDE3B Emax; read-out: Emax
Reported Emax values for a set of compounds

[
  {
    "chem.smiles": "COc1cc(C(=O)N2[C@H]3CC[C@H](c4cc(C(F)F)nc5ncnn45)[C@@H]2CC3)cc(C)n1",
    "Emax, %": 53
  },
  {
    "chem.smiles": "Cc1oncc1C(=O)N1CC[C@@H](C)[C@H](c2cc(C(F)F)nc3ncnn23)C1",
    "Emax, %": 23
  },
  {
    "chem.smiles": "Cc1cc(Cl)cc(C(=O)N2CC[C@@H](C)[C@H](c3cc(C(F)F)nc4ncnn34)C2)c1",
    "Emax, %": 44
  },
  {
    "chem.smiles": "C[C@@H]1CCN(C(=O)c2cccc3ocnc23)C[C@H]1c1cc(C(F)F)nc2ncnn12",
    "Emax, %": 36
  }
]

---

Recorded measurements of Emax, one per entry
assay.target: Human recombinant PDE3A (hPDE3A) (Homo sapiens, UniProt Q14432)
Construct: purchased Scottish Biomedical; host or cells: Sf9 insect cells
protocol.details: In vitro assay PDE3A (SPA, 3H-cAMP hydrolysis);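 note: the method names PDE3A and the table heading PDE3B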
Assay type: biochemical
condition.info: read-out: hPDE3B Emax; read-out: Emax

[
  {
    "compound": "Cc1csc2ccc(C(=O)N3CC[C@@H](C)[C@H](c4cc(C(F)F)nc5ncnn45)C3)nc12",
    "assay.target": "Human recombinant PDE3A (hPDE3A) (Homo sapiens, UniProt Q14432)",
    "Emax (%)": 99
  },
  {
    "compound": "Cc1cc(C(=O)N2CC[C@@H](C)[C@H](c3cc(C(F)F)nc4ncnn34)C2)cc(C)c1C#N",
    "assay.target": "Human recombinant PDE3A (hPDE3A) (Homo sapiens, UniProt Q14432)",
    "Emax (%)": 87
  },
  {
    "compound": "C[C@@H]1CCN(C(=O)c2cnn(C)c2)C[C@H]1c1cc(C(F)F)nc2ncnn12",
    "assay.target": "Human recombinant PDE3A (hPDE3A) (Homo sapiens, UniProt Q14432)",
    "Emax (%)": 21
  },
  {
    "compound": "O=C(c1cnc2ccccc2c1)N1[C@H]2CC[C@H](c3cc(C(F)F)nc4ncnn34)[C@@H]1CC2",
    "assay.target": "Human recombinant PDE3A (hPDE3A) (Homo sapiens, UniProt Q14432)",
    "Emax (%)": 61
  },
  {
    "compound": "C[C@@H]1CCN(C(=O)c2ccncc2N)C[C@H]1c1cc(C(F)F)nc2ncnn12",
    "assay.target": "Human recombinant PDE3A (hPDE3A) (Homo sapiens, UniProt Q14432)",
    "Emax (%)": 35
  },
  {
    "compound": "O=C(c1cnc2c(F)cccc2c1)N1[C@H]2CC[C@H](c3cc(C(F)F)nc4ncnn34)[C@@H]1CC2",
    "assay.target": "Human recombinant PDE3A (hPDE3A) (Homo sapiens, UniProt Q14432)",
    "Emax (%)": 53
  },
  {
    "compound": "Cc1nc2cccc(C(=O)N3[C@H]4CC[C@H](c5cc(C(F)F)nc6ncnn56)[C@@H]3CC4)c2o1",
    "assay.target": "Human recombinant PDE3A (hPDE3A) (Homo sapiens, UniProt Q14432)",
    "Emax (%)": 7
  },
  {
    "compound": "C[C@@H]1CCN(C(=O)c2ccc3nc(N)sc3c2)C[C@H]1c1cc(C(F)F)nc2ncnn12",
    "assay.target": "Human recombinant PDE3A (hPDE3A) (Homo sapiens, UniProt Q14432)",
    "Emax (%)": 97
  },
  {
    "compound": "C[C@@H]1CCN(C(=O)c2ccnc(Cl)c2)C[C@H]1c1cc(C(F)F)nc2ncnn12",
    "assay.target": "Human recombinant PDE3A (hPDE3A) (Homo sapiens, UniProt Q14432)",
    "Emax (%)": 48
  },
  {
    "compound": "C[C@@H]1CCN(C(=O)c2cccc(C(C)(C)C#N)c2)C[C@H]1c1cc(C(F)F)nc2ncnn12",
    "assay.target": "Human recombinant PDE3A (hPDE3A) (Homo sapiens, UniProt Q14432)",
    "Emax (%)": 71
  },
  {
    "compound": "Cc1nn(C)cc1C(=O)N1CCC[C@](C)(c2cc(C(F)F)nc3ncnn23)C1 (single isomer, unassigned)",
    "assay.target": "Human recombinant PDE3A (hPDE3A) (Homo sapiens, UniProt Q14432)",
    "Emax (%)": 2
  },
  {
    "compound": "C[C@@H]1CCN(C(=O)c2cc(Cl)ncc2Cl)C[C@H]1c1cc(C(F)F)nc2ncnn12",
    "assay.target": "Human recombinant PDE3A (hPDE3A) (Homo sapiens, UniProt Q14432)",
    "Emax (%)": 29
  },
  {
    "compound": "C[C@@H]1CCN(C(=O)c2cc(F)ccn2)C[C@H]1c1cc(C(F)F)nc2ncnn12",
    "assay.target": "Human recombinant PDE3A (hPDE3A) (Homo sapiens, UniProt Q14432)",
    "Emax (%)": 28
  },
  {
    "compound": "COCc1cc(C(=O)N2CC[C@@H](C)[C@H](c3cc(C(F)F)nc4ncnn34)C2)cc(C)n1",
    "assay.target": "Human recombinant PDE3A (hPDE3A) (Homo sapiens, UniProt Q14432)",
    "Emax (%)": 44
  },
  {
    "compound": "Cc1cc(C(=O)N2CC[C@@H](C)[C@H](c3cc(C(F)F)nc4ncnn34)C2)cc(C)c1F",
    "assay.target": "Human recombinant PDE3A (hPDE3A) (Homo sapiens, UniProt Q14432)",
    "Emax (%)": 87
  }
]

Recorded values, source patent US10947242B2.
